System: IGROV1 ovarian
experimental_details: NCI tumour cell line growth inhibition, 48 h
Recorded TGI, one value per entry.

compound: CC1CC2OC(=O)CC2C[C@@H]1O[Si](C)(C)C(C)(C)C (some centres undefined)
experimental_readout: TGI
val: > 100 µM

Form field: reported TGI of `C(#Cc1cnccn1)/C=C\C#Cc1cnccn1` > 100 µM

Form field: reported TGI of `O=C(COc1ccc(/C=C/C(=O)c2ccc(Cl)cc2)cc1)Nc1c(Cl)cccc1Cl` > 100 µM

Form field: reported TGI of `CCN1CCN(c2cc(C)nc(N(CCNc3ccnc4cc(Cl)ccc34)Cc3ccc4c(c3)OCO4)n2)CC1` 3.92 µM

###

Recorded TGI, one value per entry.
Test system: EKVX NSCLC
experimental_details: NCI tumour cell line growth inhibition, 48 h
*1 amine or outer side, *2 acyl side, *3 side chain or, on linkers, in order; H or OH if unused. Where a SMILES comes first, the peptide text is derived from it. Bridges are numbered along the chain shown (N, C = ends). [ ]: non-standard residue; d: D form. Adda = CO[C@@H](Cc1ccccc1)[C@@H](C)/C=C(C)/C=C/[C@H](N[*:1])[C@H](C)C(=O)[*:2]; dAsp(3S-Me) = C[C@H](C(=O)[*:3])[C@@H](N[*:1])C(=O)[*:2]; d(γGlu) = O=C(O)[C@@H](CCC(=O)[*:2])N[*:1]; NMeDha = C=C(NC)C(=O)O

Some solved cases for reference:
molecule: Nc1nc(-c2ccccc2)c(Cl)c(-c2cc(Cl)ccc2O)n1
experimental_readout: TGI
val: > 100 µM

molecule: CC(=O)NCCc1c(-c2[nH]c3ccccc3c2CCNC(C)=O)[nH]c2ccccc12
experimental_readout: TGI
val: > 100 µM

molecule: O=C1NC2C(=O)N(Cc3ccccc3)C(=O)C2N1 (configuration not stated)
experimental_readout: TGI
val: > 100 µM

Form field: reported TGI of `ClCc1ccc(-c2ccc(Cn3cnc4nc(Cl)nc(Cl)c43)cc2)cc1` 29.5 µM

Form field: reported TGI of COc1cc(/C=C2\C(=O)N(c3cc(Cl)ccc3Cl)C(c3ccccc3)S2(=O)=O)cc(OC)c1OC (configuration not stated) > 100 µM

Form field: reported TGI of `CCN(CC)CCOc1ccc(N2C(=O)c3cccc4cc([N+](=O)[O-])cc(c34)C2=O)cc1` 35.4 µM

Form field: reported TGI of C=C1C(O)C23CCC4C(C(=O)O)(C(=O)O)CC(OC5OC(CO)C(O)C(OC(=O)CCc6ccccc6)C5NC(=O)CC(C)C)CC4(C)C2CCC1(O)C3 (configuration not stated) > 100 µM

Form field: reported TGI of `O=C1CCCCCCCCCCC(=O)N2CCOCCOCCN1Cc1cccc(n1)C2` > 100 µM

Form field: reported TGI of `O=P(O)(NCCCl)NCCCl` > 100 µM

Form field: reported TGI of `COC(=O)c1cc(OC(C)=O)c2c(OC)ccc(OC)c2c1` > 100 µM

Form field: reported TGI of `O=C(O)/C(=C/C(=O)c1ccc(Cl)cc1)NNc1ccc([N+](=O)[O-])cc1[N+](=O)[O-]` > 100 µM

Form field: reported TGI of `O=C(CC1=Nc2nnc(CCCCCCCc3nnc4n3C(=O)C(CC(=O)c3ccccc3)=N4)n2C1=O)c1ccccc1` > 100 µM

Form field: reported TGI of `CN1C2CCC1CN(CCOC(c1ccc(F)cc1)c1ccc(F)cc1)C2` > 100 µM

Form field: reported TGI of O=C(O)CNC(=O)C(CS)Cc1ccccc1 (configuration not stated) > 25 µM

Form field: reported TGI of `O=c1c2cc([N+](=O)[O-])ccc2[nH]n1Cc1ccccn1` > 100 µM

Form field: reported TGI of `Cc1cc(NS(=O)(=O)c2ccc(NC(=O)c3cccn4c(=O)c5ccccc5nc34)cc2)no1` > 100 µM

Form field: reported TGI of CC1CC(C)CC(NC2=NCCO2)C1 (configuration not stated) > 100 µM

Form field: reported TGI of `CCOC(=O)C(=O)Nc1ccc(C)c(C)c1` > 100 µM

Form field: reported TGI of `COc1ccc(C(=O)c2cc(OC)c3c(c2)OCO3)cc1O` > 100 µM

Form field: reported TGI of `Cc1ccc2nc(-c3ccc(N)c(Br)c3)sc2c1` 58 µM

Form field: reported TGI of C=C1C(=O)N[C@H](C)C(=O)N[C@@H](CC(C)C)C(=O)N[C@@H](C(=O)O)[C@H](C)C(=O)N[C@@H](CCCN=C(N)N)C(=O)N[C@@H](/C=C/C(C)=C/[C@H](C)[C@H](Cc2ccccc2)OC)[C@H](C)C(=O)N[C@@H](C(=O)O)CCC(=O)N1C (R[Adda][d(γGlu)][NMeDha][dA]L[dAsp(3S-Me)]-OH; lactam N-7) > 5 µM

###

System: SF-539 CNS
experimental_details: NCI tumour cell line growth inhibition, 48 h
Recorded TGI, one value per entry.

Some solved cases for reference:
compound: C[N+](C)(CCNC(=O)c1cccc2cc3ccccc3nc12)Cc1ccc([N+](=O)[O-])cc1
val: > 100 µM
//
compound: O=C(/C=C/c1ccc(Cl)cc1)/C=C/c1cc2ccccc2[nH]c1=O
val: 9.37 µM
//
compound: Cc1cc(NS(=O)(=O)c2ccc(NC(=O)c3cccn4c(=O)c5ccccc5nc34)cc2)no1
val: > 100 µM
//
compound: COP(=O)(OC)/C(=C/c1c[nH]c2ccccc12)C(=O)O
val: > 100 µM
//
compound: COc1ccc2cc1Oc1ccc(cc1)CC1c3cc4c(cc3CCN1C)Oc1c(OC)cc3c(c1O4)C(C2)N(C)CC3 (configuration not stated)
val: 3.9 µM
//
compound: O=C(CC1C(=O)Nc2ccccc2S1=O)Nc1ccccc1 (configuration not stated)
val: > 100 µM
//
compound: O=[N+]([O-])c1ccc(C2=NN(c3ccccc3)C[N+](c3ccc(Br)cc3)=N2)cc1
val: > 100 µM
//
compound: CCOC(=O)C(=O)Nc1ccc(C)c(C)c1
val: > 100 µM
//
compound: CN1C2CCC1CC(CC(=O)NC(c1ccc(F)cc1)c1ccc(F)cc1)C2 (configuration not stated)
val: > 100 µM
//
compound: O=C1C2C=CC(n3[nH]c(=O)n(Cc4ccccc4)c3=O)CC2C(=O)N1c1cccc(Cl)c1 (configuration not stated)
val: > 100 µM

Form field: reported TGI of O=C1C2c3[nH]c4ccccc4c3C3CCCC3C2C(=O)N1c1ccccc1 (configuration not stated) > 100 µM

Form field: reported TGI of `O=C(COc1ccc(/C=C/C(=O)c2ccc(Cl)cc2)cc1)Nc1c(Cl)cccc1Cl` > 100 µM

###

Recorded TGI, one value per entry.
Test system: MCF7 breast
experimental_details: NCI tumour cell line growth inhibition, 48 h

Form field: reported TGI of `COc1cc(S(=O)(=O)Nc2nc(-c3ccc(N=Cc4cccs4)cc3)cs2)ccc1Cl` > 100 µM

Form field: reported TGI of `N=C(N)N=Nc1ccc(NN=C(N)N)c2c1ncc1c2nc2sccn21` > 100 µM

Form field: reported TGI of `O=C(Oc1ccc(S(=O)(=O)F)cc1F)c1ccccc1Cl` 83.9 µM

Form field: reported TGI of CCOC(=O)C1(C)CCc2sc(N)c(C#N)c21 (centres undefined) > 100 µM

Form field: reported TGI of CCCC1C(CC)C(NC)C(C#N)(C#N)C1(C#N)C#N (centres undefined) > 100 µM

###

Tested on: SK-MEL-5 melanoma
experimental_details: NCI tumour cell line growth inhibition, 48 h
Recorded TGI, one value per entry.

Some solved cases for reference:
molecule: CCCCc1ccc(Nc2cc(=O)n(C)c(=O)[nH]2)cc1
TGI: > 100 µM
//
molecule: Nc1cc(-c2ccccc2)nn1-c1nsc2ccccc12
TGI: > 100 µM
//
molecule: Nc1nc(SCCC/C=C/B(O)O)nc2c1ncn2C1OC(COP(=O)(O)O)C(O)C1O (stereo not given)
TGI: > 203 µM
//
molecule: C/C(=N\NC1=NCCN1)c1cn(C2=NCCN2)nc1C
TGI: > 100 µM
//
molecule: COc1cc(C[C@@H](C)N)cc(OC)c1
TGI: > 100 µM
//
molecule: COc1ccc(/C=C2\C(=O)N(C(=O)c3ccc(NC(C)=O)cc3)N=C2C)cc1
TGI: > 100 µM
//
molecule: O=C1/C(=C/c2cc3c(=O)c4ccccc4sc3s2)NC(=S)N1c1ccccc1
TGI: > 100 µM
//
molecule: CNC(=S)Nc1sc2c(c1C#N)CCCC2
TGI: > 75 µM

Form field: reported TGI of Cc1cc(O)c(C(=O)O)c2c1C(=O)c1c(O)c(OCC(O)C(O)C(O)C(O)CO)c(O)c(O)c1C2=O (stereo not given) (tested in a mixture with another compound) > 100 µM

Form field: reported TGI of Cc1cc(O)c(C=O)c2c1C(=O)Oc1c(CO)c(O)c3c(c1O2)C(O)OC3=O (stereo not given) > 100 µM
